The origin of these recorded values is paper PMC5039424.

tested on: yeast tRNA^Phe (RNA, tRNA) GCGGAUUUAGCUCAGUUGGGAGAGCGCCAGACUGAAGAUCUGGAGGUCCUGUGUUCGAUCCACAGAAUUCGCACCA; test: inhibition of lead(II)-induced cleavage, gel; details: 10 mM Mg2+, 1 mM NH4+, 0.5 mM Pb2+; 50% inhibition of Pb2+ cleavage; 50 mM Tris-HCl pH 7.5; RNA 2.4 μM
Quantity Measured: Ki (µM)

Below, each entry is followed by its recorded Ki result.
| Structure Smiles String | Ki / µM |
| --- | --- |
| CNc1ccc2nc3ccc(=[N+](C)C)cc-3sc2c1 | 58 |
| CN(C)c1ccc2cc3ccc(N(C)C)cc3[o+]c2c1 | 166 |

A: CN(C)c1ccc2nc3ccc(N)cc3[s+]c2c1
B: CN(C)c1ccc2nc3ccc(N(C)C)cc3[s+]c2c1
Ask | Could you please tell me which of these two has the higher Ki: A or B ? Answer = label.
Reply | B
